- TESTED_SYSTEM: ZNF580 (UniProt Q9UK33)
- Sequence (Q9UK33 whole entry, looked up): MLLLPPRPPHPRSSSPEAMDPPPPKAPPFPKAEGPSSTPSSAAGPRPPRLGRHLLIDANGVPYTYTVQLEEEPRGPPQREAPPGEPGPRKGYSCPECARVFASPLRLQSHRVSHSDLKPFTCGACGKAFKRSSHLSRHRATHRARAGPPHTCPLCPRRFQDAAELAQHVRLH
- ASSAY_PROCEDURE: log2 fold change, soluble protein after heating vs DMSO (PISA); higher = thermal stabilisation; K562 cells, 10 uM, 30 min; active = over 0.2 and 3.5 SD of the protein, either way, in both replicates (recomputed)
The full data set covers some 7,900 targets. This sample favours those with a hit. About 0.6% of all pairs of compound and target were hits.
So basically: log2 fold change at 0 or higher? That is 1. Lower than 0? That is -1.

Query: Is log2 fold change at least 0? Consider `NC(=O)Nc1cc(-c2cccc(F)c2)sc1C(=O)N[C@H]1CCCNC1`
Result: 1

Query: Is log2 fold change at least 0? Consider CC(C)N(C[C@H]1O[C@@H](n2cnc3c(N)ncnc32)[C@H](O)[C@@H]1O)[C@H]1C[C@@H](CCc2nc3cc(C(C)(C)C)ccc3[nH]2)C1 [pinometostat]
Result: -1

Query: Is log2 fold change at least 0? Consider `Cc1cc(SCc2sc(-c3ccc(C(F)(F)F)cc3)nc2C)ccc1OCC(=O)O`
Result: -1

Query: Is log2 fold change at least 0? Consider Cc1ccc(-n2nc(C(C)(C)C)cc2NC(=O)Nc2ccc(OCCN3CCOCC3)c3ccccc23)cc1 [doramapimod]
Result: 1

Query: Is log2 fold change at least 0? Consider `c1cc(OCCN2CCCCC2)cc(-c2n[nH]c3ccc(-c4nnc[nH]4)cc23)c1`
Result: -1

Query: Is log2 fold change at least 0? Consider O=C(CCCCCCNC(=O)c1cnc(N(c2ccccc2)c2ccccc2Cl)nc1)NO [citarinostat]
Result: -1

Query: Is log2 fold change at least 0? Consider `Cc1ccc(Sc2cncc3sc(C(N)=O)cc23)cc1`
Result: 1

All figures here come from the supplement of paper PMC10849652.
